Test system: MDA-N
PROTOCOL_SUMMARY: NCI tumour cell line growth inhibition, 48 h
Activity calls are given as the source filed them. Cut-off read from the data, not from the text of the source: active = GI50 up to about 1.1 µM and inactive = higher.
MEASURED_PROPERTY: GI50

- COMPOUND: "CC(C)=CCC[C@@H](C)[C@H]1CC[C@@]2(C)[C@@H]3CC[C@H]4C(C)(C)[C@@H](O)CC[C@@]45C[C@@]35CC[C@]12C"
  REPORTED_VALUE: "> 72.9 µM (inactive)"
- COMPOUND: "CCOC(=O)C(O)(C(=O)OCC)c1cc(C(C)(C)C)c(O)c(C(C)(C)C)c1"
  REPORTED_VALUE: "36.4 µM (inactive)"
- COMPOUND: "N#CC(c1cc(Cl)ncn1)c1nc2cc(C(F)(F)F)ccc2s1 (stereo not given)"
  REPORTED_VALUE: "3.42 µM (inactive)"
- COMPOUND: "Cc1ccc(S(=O)(=O)N2c3ccccc3[C@H]3CCc4c([nH]c5ccccc45)[C@H]32)cc1"
  REPORTED_VALUE: "30 µM (inactive)"
- COMPOUND: "CCOC(=O)c1[nH]c(Br)c(-c2ccc(OC)c(OC)c2)c1Br"
  REPORTED_VALUE: "0.00567 µM (active)"
- COMPOUND: "COc1ccc(/C=C2\\N=C(c3ccccc3)N(NC3=NC(=O)CC(=O)N3)C2=O)cc1"
  REPORTED_VALUE: "> 100 µM (inactive)"
- COMPOUND: "CCOC(=O)/C=C\\c1c(Cl)n(-c2ccccc2)c(=O)n(-c2ccccc2)c1=O"
  REPORTED_VALUE: "17 µM (inactive)"
- COMPOUND: "COc1cc(OCc2nc3ccccc3n3cccc23)cc(OC)c1OC"
  REPORTED_VALUE: "19.4 µM (inactive)"
- COMPOUND: "N#CCc1c(F)c(F)c(F)c(F)c1F"
  REPORTED_VALUE: "> 100 µM (inactive)"
- COMPOUND: "CCCC#CCOC(=O)c1cc([N+](=O)[O-])cc([N+](=O)[O-])c1"
  REPORTED_VALUE: "47.3 µM (inactive)"

* * *

The compounds listed here are annotated with their GI50.
Tested on: SK-MEL-5
PROTOCOL_SUMMARY: NCI tumour cell line growth inhibition, 48 h
The source made the active and inactive calls. No stated cut-off is given here; in the data, active = GI50 up to about 1.1 µM and inactive = higher.
MEASURED_PROPERTY: GI50

- COMPOUND: "COc1cc2c(c(OC)c1OC)-c1ccc(SC)c(=O)cc1[C@@H](NCc1ccc([N+](=O)[O-])cc1)CC2"
  TARGET_OR_SYSTEM: "SK-MEL-5"
  MEASURED_PROPERTY: "GI50"
  REPORTED_VALUE: "0.00421 µM (active)"
- COMPOUND: "N#CC(C(=O)/C(=N/N)C(C#N)c1ccccc1)c1ccccc1 (stereo unspecified)"
  TARGET_OR_SYSTEM: "SK-MEL-5"
  MEASURED_PROPERTY: "GI50"
  REPORTED_VALUE: "> 100 µM (inactive)"
- COMPOUND: "CCOC(=O)C(NC(=O)Nc1ccc(Cl)c(Cl)c1)C(F)(F)F (stereo unspecified)"
  TARGET_OR_SYSTEM: "SK-MEL-5"
  MEASURED_PROPERTY: "GI50"
  REPORTED_VALUE: "> 100 µM (inactive)"
- COMPOUND: "CN1CC2=C(OC(N)=C(C#N)C2c2cccs2)/C(=C/c2cccs2)C1 (stereo unspecified)"
  TARGET_OR_SYSTEM: "SK-MEL-5"
  MEASURED_PROPERTY: "GI50"
  REPORTED_VALUE: "3.41 µM (inactive)"
- COMPOUND: "c1ccc(C2=NCCc3cc4c(cc32)OCO4)cc1"
  TARGET_OR_SYSTEM: "SK-MEL-5"
  MEASURED_PROPERTY: "GI50"
  REPORTED_VALUE: "> 100 µM (inactive)"
- COMPOUND: "O=C1c2cc3c(cc2CC12Cc1ccc4c(c1C2=O)CCCC4)CCCC3 (stereo unspecified)"
  TARGET_OR_SYSTEM: "SK-MEL-5"
  MEASURED_PROPERTY: "GI50"
  REPORTED_VALUE: "> 100 µM (inactive)"
